FYI, the data here is from patent US8258309B2.

- Experimental protocol: Chimp pharmacokinetics Run A, IV or PO co-dosing of atazanavir and Compounds 114, 120, 122
- Type: in vivo, chimpanzee
- Condition parameters: chimpanzee, in vivo, iv, concentration detected intact in urine

Compound: [2H]C([2H])([2H])OC(=O)N[C@H](C(=O)N[C@@H](Cc1ccccc1)[C@@H](O)CN(Cc1ccc(-c2ccccn2)cc1)NC(=O)[C@@H](NC(=O)OC([2H])([2H])[2H])C(C([2H])([2H])[2H])(C([2H])([2H])[2H])C([2H])([2H])[2H])C(C([2H])([2H])[2H])(C([2H])([2H])[2H])C([2H])([2H])[2H] [Compound 122]
Units label: ng/mL
concentration at 24 h: 3130
--
Compound: [2H]C([2H])([2H])OC(=O)N[C@H](C(=O)NN(Cc1ccc(-c2ccccn2)cc1)C[C@H](O)[C@H](Cc1ccccc1)NC(=O)[C@@H](NC(=O)OC([2H])([2H])[2H])C(C([2H])([2H])[2H])(C([2H])([2H])[2H])C([2H])([2H])[2H])C(C)(C)C [Compound 120]
Units label: ng/mL
concentration at 24 h: 3030
--
Compound: [2H]C([2H])([2H])OC(=O)N[C@H](C(=O)N[C@@H](Cc1ccccc1)[C@@H](O)CN(Cc1ccc(-c2ccccn2)cc1)NC(=O)[C@@H](NC(=O)OC)C(C)(C)C)C(C([2H])([2H])[2H])(C([2H])([2H])[2H])C([2H])([2H])[2H] [Compound 114]
Units label: ng/mL
concentration at 24 h: 2750
--
Compound: COC(=O)N[C@H](C(=O)N[C@@H](Cc1ccccc1)[C@@H](O)CN(Cc1ccc(-c2ccccn2)cc1)NC(=O)[C@@H](NC(=O)OC)C(C)(C)C)C(C)(C)C [Atazanavir, atazanavir, reference compound]
Units label: ng/mL
concentration at 24 h: 2000

---

Quick reference: half-life at 1 μM of the listed items.
- Experimental protocol: Microsomal assay: stability in human liver microsomes
- Type: in vitro ADME
- Condition parameters: human, liver microsomes, pH 7.4, human liver microsomes, repeated assay (Table 3); read-out: t1/2 (min) Avg ± SD (n = 3)

Compound: COC(=O)N[C@H](C(=O)N[C@@H](Cc1ccccc1)[C@@H](O)CN(Cc1ccc(-c2ccccn2)cc1)NC(=O)[C@@H](NC(=O)OC)C(C)(C)C)C(C)(C)C [Atazanavir, atazanavir, reference compound]
half-life at 1 μM [min]: 18.8
//
Compound: [2H]C([2H])([2H])OC(=O)N[C@H](C(=O)NN(Cc1ccc(-c2ccccn2)cc1)C[C@H](O)[C@H](Cc1ccccc1)NC(=O)[C@@H](NC(=O)OC([2H])([2H])[2H])C(C([2H])([2H])[2H])(C([2H])([2H])[2H])C([2H])([2H])[2H])C(C)(C)C
half-life at 1 μM [min]: 26.9
//
Compound: [2H]C([2H])([2H])OC(=O)N[C@H](C(=O)N[C@@H](Cc1ccccc1)[C@@H](O)CN(Cc1ccc(-c2ccccn2)cc1)NC(=O)[C@@H](NC(=O)OC([2H])([2H])[2H])C(C([2H])([2H])[2H])(C([2H])([2H])[2H])C([2H])([2H])[2H])C(C([2H])([2H])[2H])(C([2H])([2H])[2H])C([2H])([2H])[2H]
half-life at 1 μM [min]: 28.3
//
Compound: [2H]C([2H])([2H])OC(=O)N[C@H](C(=O)N[C@@H](Cc1ccccc1)[C@@H](O)CN(NC(=O)[C@@H](NC(=O)OC([2H])([2H])[2H])C(C([2H])([2H])[2H])(C([2H])([2H])[2H])C([2H])([2H])[2H])C([2H])([2H])c1ccc(-c2ccccn2)cc1)C(C([2H])([2H])[2H])(C([2H])([2H])[2H])C([2H])([2H])[2H]
half-life at 1 μM [min]: 30.9
//
Compound: [2H]C([2H])(c1ccc(-c2ccccn2)cc1)N(C[C@H](O)[C@H](Cc1ccccc1)NC(=O)[C@@H](NC(=O)OC)C(C([2H])([2H])[2H])(C([2H])([2H])[2H])C([2H])([2H])[2H])NC(=O)[C@@H](NC(=O)OC)C(C)(C)C
half-life at 1 μM [min]: 23.9
//
Compound: [2H]C([2H])([2H])OC(=O)N[C@H](C(=O)N[C@@H](Cc1ccccc1)[C@@H](O)CN(Cc1ccc(-c2ccccn2)cc1)NC(=O)[C@@H](NC(=O)OC([2H])([2H])[2H])C(C)(C)C)C(C)(C)C
half-life at 1 μM [min]: 17.2
//
Compound: [2H]C([2H])([2H])OC(=O)N[C@H](C(=O)N[C@@H](Cc1ccccc1)[C@@H](O)CN(Cc1ccc(-c2ccccn2)cc1)NC(=O)[C@@H](NC(=O)OC)C(C)(C)C)C(C([2H])([2H])[2H])(C([2H])([2H])[2H])C([2H])([2H])[2H]
half-life at 1 μM [min]: 31.5
